Entry source: patent US20230095569A1

Each record here notes measured FACS MFI.
# target_entity: T1, human Claudin18.1 (CLDN18.1) (human, UniProt P56856 1-261)
# T1 construct: whole, on cells; also called human Claudine18.1
# method_description: FACS on CHOK1-18.1 cells;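 note: test antibody binding to the cells detected by flow cytometry using a fluorescent dye-labelled secondary antibody, read out as median fluorescence intensity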

binder	FACS MFI
Ab31 (antibody, V domains shown, mouse monoclonal (hybridoma)) VH: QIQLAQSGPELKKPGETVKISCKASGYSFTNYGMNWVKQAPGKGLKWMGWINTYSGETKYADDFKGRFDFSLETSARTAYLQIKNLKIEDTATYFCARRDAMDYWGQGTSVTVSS VL: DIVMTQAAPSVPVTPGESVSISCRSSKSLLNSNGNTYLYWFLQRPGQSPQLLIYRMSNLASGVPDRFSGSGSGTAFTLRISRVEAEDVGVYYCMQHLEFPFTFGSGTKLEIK	97
Ab13 (antibody, V domains shown, mouse monoclonal (hybridoma)) VH: EVRLVESGGGLVKPGGSLKLSCAGSGFTFSSYTMSWVRQTPEKRLEWVATITIGVNIYYLDSVKGRFTISRDNAKNTLYLQMNSLRSEDTALYYCTRLGQTQRNAMDYWGQGTSVTVSS VL: DIVMTQSPTSLSVSAGEKVTMTCKSSQSLLNSGNQKNYLAWYQEKPGQPPKLLIYGASTRESGVPDRFTGSGSGTDFTLTISSVQAEDLAVYYCQNNHFYPLTFGAGTKLELK	82.3
Ab24 (antibody, V domains shown, mouse monoclonal (hybridoma)) VH: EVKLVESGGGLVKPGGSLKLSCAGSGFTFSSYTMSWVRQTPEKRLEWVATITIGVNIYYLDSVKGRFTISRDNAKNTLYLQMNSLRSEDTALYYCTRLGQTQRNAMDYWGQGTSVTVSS VL: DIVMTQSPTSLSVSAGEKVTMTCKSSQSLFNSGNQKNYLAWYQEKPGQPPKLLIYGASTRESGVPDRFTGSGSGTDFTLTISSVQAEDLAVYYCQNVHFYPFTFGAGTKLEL	80.8
Ab11 (antibody, V domains shown, mouse monoclonal (hybridoma)) VH: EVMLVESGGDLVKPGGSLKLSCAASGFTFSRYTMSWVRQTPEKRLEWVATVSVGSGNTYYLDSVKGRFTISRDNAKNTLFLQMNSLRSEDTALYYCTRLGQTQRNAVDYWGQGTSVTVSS VL: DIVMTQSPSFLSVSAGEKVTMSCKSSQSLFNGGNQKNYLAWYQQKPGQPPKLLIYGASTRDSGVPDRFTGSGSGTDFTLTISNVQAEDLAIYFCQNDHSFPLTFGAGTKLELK	80.8
Ab29 (antibody, V domains shown, mouse monoclonal (hybridoma)) VH: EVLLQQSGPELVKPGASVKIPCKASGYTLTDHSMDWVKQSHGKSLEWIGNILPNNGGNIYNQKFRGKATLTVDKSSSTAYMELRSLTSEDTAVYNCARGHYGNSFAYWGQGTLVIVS VL: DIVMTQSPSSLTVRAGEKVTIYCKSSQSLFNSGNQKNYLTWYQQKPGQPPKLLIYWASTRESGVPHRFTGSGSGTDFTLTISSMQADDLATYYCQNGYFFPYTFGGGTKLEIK	97

Data request: Fill in reported FACS MFI for this entry: Ab37 (antibody, V domains shown, mouse monoclonal (hybridoma)) VH: EVKLEESGGGLVQPGGSMKLSCVASGFTFSNYWMNWVRQYPEQGLEWVAQIRLNSDNYATHYAESVKGRFTISRDDSRSTVYLQMNNLRAEDTGIYYCTGGGEYWGQGTTLTVSS VL: DIVMTQSQKFMSTTIGDRVSITCKASQNVDTAVAWYQQKPGQSPKLLIYSASTRYTGVPDRFTGSGSGTDFTLTISNMQSEDLADYFCQQYISYQLTFGAGTKLELK
Data returned: 4590

Data request: Fill in reported FACS MFI for this entry: Ab05 (antibody, V domains shown, mouse monoclonal (hybridoma)) VH: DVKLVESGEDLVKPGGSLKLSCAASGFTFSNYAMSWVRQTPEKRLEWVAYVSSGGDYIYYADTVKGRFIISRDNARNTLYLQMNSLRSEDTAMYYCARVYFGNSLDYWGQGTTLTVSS VL: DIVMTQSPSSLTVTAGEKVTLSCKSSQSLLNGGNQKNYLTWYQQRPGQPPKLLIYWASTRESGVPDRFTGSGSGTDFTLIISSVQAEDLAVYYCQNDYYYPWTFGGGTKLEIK
Data returned: 97

Data request: Fill in reported FACS MFI for this entry: Ab04 (antibody, V domains shown, mouse monoclonal (hybridoma)) VH: EVQLQQSGPELVKPGASVKMSCMASGYTFTDYNIHWVKRSHGSRLEWIGYISPISGGAGYNQKFMDKATLTVDKSSNTAYMELRSLTSEDSAVYYCTRGDYWGQGTTLTVSS VL: DIVMTQSPSSLAVTVGEKVTMSCKSSQSLLNSGNQKNYLTWYQQKPGQPPKLLIYWASTRKSGVPDRFTGSGSGTDFTLTISSVQAEDLGIYYCLNDYGFPLTFGAGSKLELK
Data returned: 6920

Data request: Fill in reported FACS MFI for this entry: Ab19 (antibody, V domains shown, mouse monoclonal (hybridoma)) VH: EVMLVESGGDLVKPGGSLKLSCAASGFSFSRYTMSWVRQTPEKRLEWVATVSVGSGNTYYLDSVKGRFTISRDNAKNTLFLQMSSLRSEDTALYYCARMGQTQRNAVDYWGQGTSVTVSS VL: DIVMTQSPSSLSVSAGEKVTMSCKSSQSLFNSGNQKNYLAWYQQKPGQPPKLLIYGASTRESGVPDRFTGSGSGTDFTLTISNVQAEDLAVYLCQNDHSFPLTFGAGTKLEL
Data returned: 80.8

Data request: Fill in reported FACS MFI for this entry: Ab18 (antibody, V domains shown, mouse monoclonal (hybridoma)) VH: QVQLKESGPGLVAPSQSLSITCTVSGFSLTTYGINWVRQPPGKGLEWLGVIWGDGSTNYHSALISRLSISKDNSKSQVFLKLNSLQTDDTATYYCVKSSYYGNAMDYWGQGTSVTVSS VL: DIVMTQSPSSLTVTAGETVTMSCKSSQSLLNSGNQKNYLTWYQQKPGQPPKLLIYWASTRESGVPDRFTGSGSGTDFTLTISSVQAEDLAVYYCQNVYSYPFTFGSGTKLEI
Data returned: 79.4
